Measured PBM binding z-score accompanies every entry in the list below.
# Test system: PXR:RXRa (NR concentration 270 nM, RXRa partner concentration 90 nM)
# test-description: PBM binding z-score (relative to random genomic background probes); higher = stronger binding; sequences stand for … in GC…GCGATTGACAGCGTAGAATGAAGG

{"query-sequence": "TCTTGTAGATCACCAGGAGGTTAAGAAAGATCGA", "PBM binding z-score": 0.915}
{"query-sequence": "CCTACTGGGCGAAAAAGGTCATTGATGCCGATAA", "PBM binding z-score": 4.39}
{"query-sequence": "TAGCCTAGTTCAGATCGGGCCAGTATACGCTATA", "PBM binding z-score": 0.226}
{"query-sequence": "GCGACTGGGGCCAAGCAGGTTACCATAAGGTTGG", "PBM binding z-score": -0.00892}
{"query-sequence": "TAGACTAGGTCATGGGCCAGTATACCACGCGAAC", "PBM binding z-score": 1.04}
{"query-sequence": "AGAATAAGGTTACCAAAGATCAGGGAAACGCTTG", "PBM binding z-score": 1.03}
{"query-sequence": "TCTTGTAGATCAATAGATGTTAAGAAAGTGCGCT", "PBM binding z-score": 0.533}
{"query-sequence": "CAGCCTAGGTTAGGGCCAGTATAGGAGGAACGTT", "PBM binding z-score": -0.636}
{"query-sequence": "CCTTGGAGGACAGAAGGTCAGAGCTGTCCGCTTT", "PBM binding z-score": 1.69}
{"query-sequence": "CCTAGCAGGCCAGCGTCACTCAAGCATTTCGCTT", "PBM binding z-score": -0.806}
{"query-sequence": "CTCGAAAGGGCGGTTGAGGTGAGTATACGGATAA", "PBM binding z-score": 0.233}
{"query-sequence": "TCATATAGGTAAACAGGTGAAATTCCGTAAGTTA", "PBM binding z-score": 1.03}
